# Method Summary: solvent given as SMILES
# Condition: in c1cc(-c2cccc(-n3c4ccccc4c4ccccc43)c2)cc(-n2c3ccccc3c3ccccc32)c1
Recorded Metric: fluorescence lifetime
Respond with the figure and its unit, in that order.

CC(C)c1cc(C(C)C)c(B2c3cc(-n4c5ccc(C(C)(C)C)cc5c5cc(C(C)(C)C)ccc54)ccc3N(c3ccccc3)c3ccc(-n4c5ccc(C(C)(C)C)cc5c5cc(C(C)(C)C)ccc54)cc32)c(C(C)C)c1 ... 15 ns

The recorded fluorescence lifetime for Cc1cc(-n2c3ccccc3c3ccccc32)c(-n2c3ccccc3c3ccccc32)cc1C#N is 14.6 ns

Query CC1(C)c2ccccc2N(c2ccc(-c3cc(C#N)c(C#N)cc3-c3ccc(N4c5ccccc5C(C)(C)c5ccccc54)cc3)cc2)c2ccccc21 yields fluorescence lifetime of 35 ns

----------
# Method Summary: solvent given as SMILES
# Condition: in ClCCl
# maps each entry to its log10 fluorescence lifetime
// do not treat as linear: log10 of fluorescence lifetime, unit ns

COc1ccc2c(c1)c1c(OC)c3ccccc3c(OC)c1n2C ... 1.43
CCCCn1c2ccc(C#N)cc2c2cc(C#N)cc(-c3ccc(N(c4ccccc4)c4ccccc4)cc3)c21 ... 0.28
Cc1cc(-c2ccc(-c3ccccc3)cc2)cc(C)[o+]1 ... 0.53
F[B-]1(F)Oc2ccccc2-c2c3c(c4c([n+]21)CCc1ccccc1-4)CCc1ccccc1-3 ... 0.33

Recorded result, c1cc2c3c(c1)ccc1[n+]3[B-]3(Oc4cccc5ccc6[n+](c45)[B-](O2)(O3)n2c-6cc3c4ccccc4c4ccccc4c32)n2c-1cc1c3ccccc3c3ccccc3c12 , log10 fluorescence lifetime: 0.56

----------
# Method Summary: solvent given as SMILES
# Condition: in C1CCOC1
As shown below, each of these molecules has a reported fluorescence lifetime value.
API: value field is a number in ns; no unit string.

The examples below pair each entry with its known result.
c1ccc(-c2cc(-c3ccc(-c4nc(-c5ccccn5)c(-c5ccccn5)[nH]4)cc3)cc(-c3ccccn3)n2)nc1 ... 1.46
c1coc(-c2nc3ccccc3[nH]2)c1 ... 1.47
OB(O)c1ccc(-c2ccc(N(c3ccccc3)c3ccccc3)cc2)cc1 ... 2.14

In plain terms, CCC1(CC)c2ccccc2-c2c1c1c(c3c2C(CC)(CC)c2cc(N(c4ccccc4)c4ccccc4)ccc2-3)C(CC)(CC)c2ccccc2-1 has a documented fluorescence lifetime of 1.6

The recorded fluorescence lifetime for CCn1c2ccccc2c2cc(C#Cc3cc(C#Cc4ccc5c(c4)c4ccccc4n5CC)nc(N4CCCCC4)n3)ccc21 is 2.9

For this molecule ( CCC1(CC)c2cc(B(c3c(C)cc(C)cc3C)c3c(C)cc(C)cc3C)ccc2-c2ccc(N(c3ccccc3)c3ccccc3)cc21 ), measured fluorescence lifetime is 2.5

Value of fluorescence lifetime reported for the molecule C(=C\c1cc(/C=C/c2ccc(-n3c4ccccc4c4ccccc43)cc2)cc(/C=C/c2ccc(-n3c4ccccc4c4ccccc43)cc2)c1)/c1ccc(-n2c3ccccc3c3ccccc32)cc1 is 4.56

Entry O=C1c2ccccc2C(=O)C1C1C(=O)c2c3ccccc3cc3cc4ccccc4c1c23 (centres undefined) ; fluorescence lifetime = 13.5

# molecule CCCCCCCCN1c2ccc(C#Cc3ccc(OC)cc3)cc2Sc2cc(C=O)ccc21 ; its fluorescence lifetime = 7.1

----------
# Method Summary: solvent given as SMILES
# Condition: in O=P(c1ccccc1)(c1ccccc1)c1ccccc1Oc1ccccc1P(=O)(c1ccccc1)c1ccccc1
Quick rule: fluorescence lifetime of at least 8 ns means yes, below that means no.

Cc1nnc(-c2cc(-c3nnc(C)o3)c(-n3c4ccccc4c4ccccc43)cc2-n2c3ccccc3c3ccccc32)o1 ... yes
CC1(C)c2ccccc2N(c2ccc3c(c2)Oc2ccccc2S3(=O)=O)c2ccccc21 ... yes
c1ccc(-c2nc(-c3ccccc3)nc(-c3ccc(-n4c5ccccc5c5c6c(ccc54)-c4ccccc4C6(c4ccccc4)c4ccccc4)cc3)n2)cc1 ... no
N#Cc1c(-n2c3ccccc3c3ccccc32)cccc1-n1c2ccccc2c2ccccc21 ... no
c1ccc(-c2nc(-c3ccccc3)nc(-c3ccc(-n4c5ccccc5c5cc6c(cc54)C4(c5ccccc5-c5ccccc54)c4ccccc4-6)cc3)n2)cc1 ... no

Task: hey, is fluorescence lifetime for this one >= 8 ns? CC1(C)c2ccccc2-c2cc3c4ccccc4n(-c4ccc(-c5nc(-c6ccccc6)nc(-c6ccccc6)n5)cc4)c3cc21
Result: yes

Task: Given N#Cc1c(-c2ccc(N(c3ccccc3)c3ccccc3)cc2)c(C#N)c(-c2ccc(N(c3ccccc3)c3ccccc3)cc2)c(C#N)c1-c1ccc(N(c2ccccc2)c2ccccc2)cc1 , state whether its fluorescence lifetime is at least 8 ns.
Result: no

Task: Reported fluorescence lifetime at or above 8 ns? CC1(C)c2ccccc2N(c2cc[n+]3c(c2)-c2ccccc2O[B-]3(F)F)c2ccccc21
Result: no
